koff listing for selected binders.
Molecular target: T1, human IL-1β (human, UniProt P01584 117-269)
T1 construct: it has 153 residues and begins APVRS; also called hIL-1β; recombinant purified human IL-1β
Test: SPR (Biacore 3000), antibody captured, human IL-1β as analyte, 25 C
Description: The BIACORE® assay (Biacore, Inc., Piscataway, N.J.) determines the affinity of antibodies with kinetic measurements of on-, off-rate constants. Binding of antibodies to recombinant purified human IL-1β was determined by surface plasmon resonance-based measurements with a Biacore™ 3000 instrument (Biacore™ AB, Uppsala, Sweden) using running HBS-EP (10 mM HEPES [pH 7.4], 150 mM NaCl, 3 mM EDTA, and 0.005% surfactant P20) at 25° C. […]

{"columns": ["BINDER", "koff"],
 "data": [
  ["humanized anti-human IL-1β antibody 1B12.4 (antibody, V domains shown, Cloned into IgG expression vectors and made as full-length humanized antibody; also called h1B12VH.1a/h1B12VL.2b; combination 4) VH: EVQLQESGPGLVKPSETLSLTCTVSGFSLSDYGVSWIRQPPGKGLEWLGLIWGGGDTYYNSPLKSRLTISKDNSKSQVSLKLSSVTAADTAVYYCAKQRTLWGYDLYGMDYWGQGTLVTVSS VL: ETTVTQSPAFLSVTPGEKVTITCITSTDIDVDMNWYQQKPDQPPKLLISQGNTLRPGVPSRFSSSGSGTDFTFTISSLEAEDAATYYCLQSDNLPLTFGQGTKLEIK", "0.00097 s⁻¹"],
  ["humanized anti-human IL-1β antibody 1B12.8 (antibody, V domains shown, Cloned into IgG expression vectors and made as full-length humanized antibody; also called h1B12VH.2a/h1B12VL.2b; combination 8) VH: EVQLVESGGGLVQPGGSLRLSCAVSGFTLSDYGVSWIRQAPGKGLEWLGLIWGGGDTYYNSPLKSRLTISKDNSKSTVYLQMNSLRAEDTAVYYCAKQRTLWGYDLYGMDYWGQGTLVTVSS VL: ETTVTQSPAFLSVTPGEKVTITCITSTDIDVDMNWYQQKPDQPPKLLISQGNTLRPGVPSRFSSSGSGTDFTFTISSLEAEDAATYYCLQSDNLPLTFGQGTKLEIK", "0.00137 s⁻¹"],
  ["humanized anti-human IL-1β antibody 1B12.5 (antibody, V domains shown, Cloned into IgG expression vectors and made as full-length humanized antibody; also called h1B12VH.2a/h1B12VL.1a; combination 5) VH: EVQLVESGGGLVQPGGSLRLSCAVSGFTLSDYGVSWIRQAPGKGLEWLGLIWGGGDTYYNSPLKSRLTISKDNSKSTVYLQMNSLRAEDTAVYYCAKQRTLWGYDLYGMDYWGQGTLVTVSS VL: DTQVTQSPSSLSASVGDRVTITCITSTDIDVDMNWYQQKPGKPPKLLISQGNTLRPGVPSRFSSSGSGTDFTFTISSLQPEDFATYYCLQSDNLPLTFGQGTKLEIK", "0.00144 s⁻¹"],
  ["humanized anti-human IL-1β antibody 1B12.7 (antibody, V domains shown, Cloned into IgG expression vectors and made as full-length humanized antibody; also called h1B12VH.2a/h1B12VL.2a; combination 7) VH: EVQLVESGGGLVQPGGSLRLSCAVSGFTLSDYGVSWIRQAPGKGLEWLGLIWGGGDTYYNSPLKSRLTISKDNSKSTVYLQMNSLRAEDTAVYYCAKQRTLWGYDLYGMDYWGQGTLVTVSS VL: DTVVTQSPAFLSVTPGEKVTITCITSTDIDVDMNWYQQKPDQPPKLLISQGNTLRPGVPSRFSSSGSGTDFTFTISSLEAEDAATYYCLQSDNLPLTFGQGTKLEIK", "0.00164 s⁻¹"]
]}

The values you see were collected from patent US20110142761A1.
